experiment: Pharmacokinetic analysis, plasma and tissue concentration; type: in vivo, CD1 mice; details: CD1, mouse, pancreas, po, 1 mg/kg
Quantity Name: concentration at 8 h (ng/mL)
Numbers only, in ng/mL.

Problem: Could you please provide reported concentration at 8 h for COC(=O)C[C@](O)(CCCC(C)(C)O)C(=O)O[C@@H]1C(OC)=C[C@]23CCCN2CCc2cc4c(cc2[C@H]13)OCO4 ? Thanks!
Solution: 211

====

assay: Pharmacokinetic analysis, plasma and tissue concentration; format: in vivo, CD1 mice; conditions: CD1, mouse, spleen, sc, 1 mg/kg
Quantity Name: concentration at 24 h (µg/mL)
Give bare numbers, in µg/mL.

Problem: Could you please provide reported concentration at 24 h for COC(=O)C[C@](O)(CCCC(C)(C)O)C(=O)O[C@@H]1C(OC)=C[C@]23CCCN2CCc2cc4c(cc2[C@H]13)OCO4 ? Thanks!
Solution: 0.0165

====

assay: Pharmacokinetic analysis, plasma and tissue concentration; type: in vivo, CD1 mice; details: CD1, mouse, stomach, sc, 1 mg/kg
Quantity Name: concentration at 2 h (ng/mL)
Give bare numbers, in ng/mL.

Problem: Could you please provide reported concentration at 2 h for COC(=O)C[C@](O)(CCCC(C)(C)O)C(=O)O[C@@H]1C(OC)=C[C@]23CCCN2CCc2cc4c(cc2[C@H]13)OCO4 [HHT, homoharringtonine] ? Thanks!
Solution: 587

====

assay: Pharmacokinetic analysis, plasma and tissue concentration; format: in vivo, CD1 mice; details: CD1, mouse, plasma, po, 1 mg/kg
Quantity Name: concentration at 0.5 h (ng/mL)
Answers are plain numbers, in ng/mL.

Problem: Could you please provide reported concentration at 0.5 h for COC(=O)C[C@](O)(CCCC(C)(C)O)C(=O)O[C@@H]1C(OC)=C[C@]23CCCN2CCc2cc4c(cc2[C@H]13)OCO4 ? Thanks!
Solution: 14.8

====

test: Pharmacokinetic analysis, plasma and tissue concentration; type: in vivo, CD1 mice; conditions: CD1, mouse, large intestine, po, 1 mg/kg
Quantity Name: concentration at 0.5 h (ng/mL)
Numbers only, in ng/mL.

Problem: Could you please provide reported concentration at 0.5 h for COC(=O)C[C@](O)(CCCC(C)(C)O)C(=O)O[C@@H]1C(OC)=C[C@]23CCCN2CCc2cc4c(cc2[C@H]13)OCO4 ? Thanks!
Solution: 105

====

assay: Pharmacokinetic analysis, plasma and tissue concentration; format: in vivo, CD1 mice; settings: CD1, mouse, esophagus, po, 1 mg/kg
Quantity Name: concentration at 0.5 h (ng/mL)
Answers are plain numbers, in ng/mL.

Problem: Could you please provide reported concentration at 0.5 h for COC(=O)C[C@](O)(CCCC(C)(C)O)C(=O)O[C@@H]1C(OC)=C[C@]23CCCN2CCc2cc4c(cc2[C@H]13)OCO4 ? Thanks!
Solution: 607

====

experiment: Pharmacokinetic analysis, plasma and tissue concentration; format: in vivo, CD1 mice; settings: CD1, mouse, heart, po, 1 mg/kg
Quantity Name: concentration at 2 h (ng/mL)
One number for each entry, in ng/mL.

Problem: Could you please provide reported concentration at 2 h for COC(=O)C[C@](O)(CCCC(C)(C)O)C(=O)O[C@@H]1C(OC)=C[C@]23CCCN2CCc2cc4c(cc2[C@H]13)OCO4 ? Thanks!
Solution: 321

====

assay: Pharmacokinetic analysis, plasma and tissue concentration; format: in vivo, CD1 mice; settings: CD1, mouse, brain, sc, 1 mg/kg
Quantity Name: concentration at 8 h
Please provide the amount together with its unit, number first.

Problem: Could you please provide reported concentration at 8 h for COC(=O)C[C@](O)(CCCC(C)(C)O)C(=O)O[C@@H]1C(OC)=C[C@]23CCCN2CCc2cc4c(cc2[C@H]13)OCO4 ? Thanks!
Solution: 4.97 ng/mL
